System: GH3-TRE-Luc cell line
conditions: read-out: AC50 (uM) modified / 1000; Tox21_110001=Tox21_303082; viability, 1 nM T3 present, 24 h
readout: CC50 (µM)

{"columns": ["molecule", "unitDescriptor", "observed"],
 "data": [
  ["CC1CC(OC(=O)c2ccccc2O)CC(C)(C)C1 (stereo not shown) [3,3,5-Trimethylcyclohexyl salicylate]", "µM", 72.7]
]}

---

Test system: GH3-TRE-Luc cell line
conditions: read-out: AC50 (uM) modified / 1000; Tox21_110001=Tox21_302978; viability, 1 nM T3 present, 24 h
Where a name gives a salt, the structure may show the parent alone.
readout: CC50 (µM)

{"columns": ["compound", "targetEntity", "observed"],
 "data": [
  ["CC(COc1ccccc1)N(CCCl)Cc1ccccc1 (stereo not shown) [Phenoxybenzamine hydrochloride]", "GH3-TRE-Luc cell line", 68.5]
]}

---

testDescription: in vitro
conditions: rat, gh3-tre-luc cells, AC50 (uM) modified / 1000, Tox21_110001=Tox21_302252; viability, 1 nM T3 present, 24 h

{"columns": ["recordSmiles", "CC50 at 24 h / µM"],
 "data": [
  ["O=C(NCc1cccnc1)Nc1ccc([N+](=O)[O-])cc1", 81.3]
]}

---

Test system: GH3-TRE-Luc cell line
conditions: read-out: AC50 (uM) modified / 1000; Tox21_110001=Tox21_201569; viability, 1 nM T3 present, 24 h

{"columns": ["compound", "targetEntity", "CC50"],
 "data": [
  ["CN(C)C(=S)SSC(=S)N(C)C [Thiram]", "GH3-TRE-Luc cell line", "12.7 µM"]
]}

---

As shown below, each of these molecules has a reported CC50 at 24 h value.
testDescription: in vitro
conditions: rat, gh3-tre-luc cells, AC50 (uM) modified / 1000
Counter-ions that a name gives are not always drawn.

{"columns": ["molecule", "CC50 at 24 h"],
 "data": [
  ["CCN(CC)CCOc1ccc(C(=C(Cl)c2ccccc2)c2ccccc2)cc1", "6.61 µM"],
  ["CCOc1ccc(NC(=O)CC(C)=O)cc1 [N-(4-Ethoxyphenyl)-3-oxobutanamide]", "> 90 µM"],
  ["NCCc1cc[nH]n1 [Betazole hydrochloride]", "> 20 µM"],
  ["CN[C@@H](C)[C@H](O)c1ccccc1 [Ephedrine hydrochloride]", "> 50 µM"],
  ["COC(=O)C1CC(=O)C(C(=O)OC)CC1=O (stereo not shown) [Dimethyl succinylsuccinate]", "> 5 µM"],
  ["O=C(c1ccc(Cl)cc1)c1ccc(Cl)cc1", "> 90 µM"],
  ["O=C(O)COc1nn(Cc2ccccc2)c2ccccc12 [Bendazac sodium]", "> 50 µM"],
  ["C=CCCCC", "> 100 µM"],
  ["CC12CCC(CC1)C(C)(C)O2", "> 90 µM"],
  ["CC(C)C(=O)OCCc1ccccc1 [2-Phenylethyl 2-methylpropanoate]", "> 90 µM"]
]}

---

testDescription: in vitro
conditions: rat, gh3-tre-luc cells, AC50 (uM) modified / 1000, Tox21_110001=Tox21_201786; viability, 1 nM T3 present, 24 h
readout: CC50 at 24 h

{"columns": ["compound", "observed"],
 "data": [
  ["CCCC=NO [Butanal oxime]", "> 90 µM"]
]}

---

System: GH3-TRE-Luc cell line
conditions: read-out: AC50 (uM) modified / 1000; Tox21_110001=Tox21_202361; viability, 1 nM T3 present, 24 h

{"columns": ["molecule", "unitDescriptor", "CC50"],
 "data": [
  ["COc1ccc(C(Cl)=C(c2ccc(OC)cc2)c2ccc(OC)cc2)cc1 [Chlorotrianisene]", "µM", 13.6]
]}

---

Tested on: GH3-TRE-Luc cell line
conditions: read-out: AC50 (uM) modified / 1000; Tox21_110001=Tox21_202993; viability, 1 nM T3 present, 24 h

{"columns": ["molecule", "CC50"],
 "data": [
  ["C=CC(=O)OCCOCCOCCOCCOC(=O)C=C [Tetraethylene glycol diacrylate]", "17.8 µM"]
]}

---

testDescription: in vitro
conditions: rat, gh3-tre-luc cells, AC50 (uM) modified / 1000
Structures can show the parent of a compound that is named as a salt.
As shown below, each of these molecules has a reported CC50 at 24 h value.

{"columns": ["molecule", "CC50 at 24 h"],
 "data": [
  ["CO[C@@H]1[C@@H](O[C@@H]2O[C@H](C)[C@@H](O[C@H]3C[C@@](C)(O)[C@@H](O)[C@H](C)O3)[C@H](N(C)C)[C@H]2O)[C@@H](CC=O)C[C@@H](C)[C@@H](O[C@H]2CC[C@H](N(C)C)[C@@H](C)O2)/C=C/C=C/C[C@@H](C)OC(=O)C[C@H]1OC(C)=O [Spiramycin II]", "32.1 µM"],
  ["CCCCCc1cc(O)c2c(c1)OC(C)(C)[C@@H]1CCC(C)=C[C@@H]21 [Tetrahydrocannabinol]", "10.9 µM"],
  ["CC(CCc1ccc(O)cc1)NCCc1ccc(O)c(O)c1 (centres unmarked) [Dobutamine]", "> 50 µM"],
  ["O=C(O)[C@@H]1[C@H](C(=O)O)[C@H]2CC[C@@H]1O2 [Endothal]", "> 90 µM"],
  ["[H]/N=C(/N)N[C@H]1[C@H](O)[C@@H](O)[C@H](O[C@@H]2O[C@@H](C)[C@](O)(C=O)[C@H]2O[C@@H]2O[C@@H](CO)[C@H](O)[C@@H](O)[C@@H]2NC)[C@@H](N/C(N)=N\\[H])[C@@H]1O [Streptomycin sulfate (2:3)]", "> 50 µM"]
]}

---

testDescription: in vitro
conditions: rat, gh3-tre-luc cells, AC50 (uM) modified / 1000
Counter-ions that a name gives are not always drawn.
readout: CC50 at 24 h

{"columns": ["molecule", "observed"],
 "data": [
  ["Clc1ccccc1CN1CCc2sccc2C1", "21.6 µM"],
  ["Oc1cccc(O)c1O", "44.6 µM"],
  ["C[C@H](CCC(=O)O)[C@H]1CC[C@H]2[C@@H]3C(=O)C[C@@H]4CC(=O)CC[C@]4(C)[C@H]3CC(=O)[C@]12C [Dehydrocholic acid]", "> 50 µM"],
  ["O=C(Nc1cccc2c(=O)cc(-c3nnn[nH]3)oc12)c1ccc(OCCCCc2ccccc2)cc1", "> 50 µM"],
  ["CCN(CC)CCOc1ccccc1C(=O)CCc1ccccc1", "18.1 µM"],
  ["COc1ccc(C(O)(c2cncnc2)C2CC2)cc1 (stereo not drawn)", "> 90 µM"],
  ["CCN1C[C@]2(COC)[C@H](O)C[C@H](OC)[C@]34C1[C@H]([C@H](OC)[C@H]23)[C@]1(OC(C)=O)[C@H]2[C@@H](OC(=O)c3ccccc3)[C@](O)(C[C@H]24)[C@@H](OC)[C@@H]1O", "> 50 µM"],
  ["C[C@H](CCC(=O)O)[C@H]1CC[C@H]2[C@@H]3CC[C@@H]4C[C@H](O)CC[C@]4(C)[C@H]3CC[C@]12C", "24.5 µM"],
  ["CCCOc1ccc(S(=O)(=O)N2CCN(CC)CC2)cc1-c1nc2c(CC)n(Cc3ccccn3)nc2c(=O)[nH]1", "> 90 µM"],
  ["COC(=O)/C=C\\C(=O)OC [Dimethyl maleate]", "> 90 µM"],
  ["CC(=O)N(CC(O)CN(C(C)=O)c1c(I)c(C(=O)NC[C@@H](O)CO)c(I)c(C(=O)NC[C@@H](O)CO)c1I)c1c(I)c(C(=O)NC[C@@H](O)CO)c(I)c(C(=O)NC[C@@H](O)CO)c1I", "> 20 µM"],
  ["O=C1OC(=O)C2CC=CCC12 (stereo not drawn) [Tetrahydrophthalic anhydride]", "> 90 µM"],
  ["CC1CC(C)C(=O)C1=O (stereo not drawn)", "> 90 µM"],
  ["CC(C)[C@H](N)C(=O)OCC(CO)OCn1cnc2c(=O)nc(N)[nH]c21 (stereo partly drawn) [Valganciclovir hydrochloride]", "> 50 µM"],
  ["CC(=O)OC(C)(C)C1CC=C(C)CC1 (stereo not drawn) [alpha-Terpinyl acetate]", "> 90 µM"],
  ["c1ccoc1", "> 90 µM"],
  ["C=C/C(C)=C/C/C=C(\\C)CCC=C(C)C", "> 90 µM"],
  ["Nc1c2c(nc3c1CCC3)CCCC2 [Ipidacrine hydrochloride hydrate]", "> 50 µM"],
  ["CC(COc1ccccc1)NC(C)C(O)c1ccc(O)cc1 (stereo not drawn) [Isoxsuprine hydrochloride]", "> 20 µM"],
  ["CCCCOC(=O)CC [Butyl propionate]", "> 90 µM"],
  ["CCC(=O)C=CC1C(C)=CCCC1(C)C (stereo not drawn)", "> 90 µM"],
  ["[O-][S+](c1cc(Cl)cc(Cl)c1O)c1cc(Cl)cc(Cl)c1O [Bithionoloxide]", "46 µM"],
  ["CC(C)c1nc(N(C)S(C)(=O)=O)nc(-c2ccc(F)cc2)c1/C=C/[C@@H](O)C[C@@H](O)CC(=O)O", "> 50 µM"],
  ["C#CCN(C)[C@H](C)Cc1ccccc1 [Selegiline hydrochloride]", "> 50 µM"],
  ["O=C(CCCCCCCCc1cccnc1)N1CCC(C=C(c2ccccc2)c2ccccc2)CC1", "26.1 µM"],
  ["CCCC(C)C(=O)O (stereo not drawn)", "> 90 µM"],
  ["COCCC#N", "> 90 µM"],
  ["Cc1ccc(C(C)C)c(O)c1", "> 90 µM"],
  ["O=C(O)Cn1c(=O)n(Cc2ccc(Br)cc2F)c(=O)c2ccc(Cl)cc21", "> 90 µM"],
  ["c1cc(OCC2CO2)ccc1Cc1ccc(OCC2CO2)cc1 (stereo not drawn) [Bis[4-(glycidyloxy)phenyl]methane]", "42.4 µM"],
  ["CCCCCCCCCCCCCCCCN", "> 50 µM"],
  ["N=C(Nc1ccccc1)Nc1ccccc1", "> 50 µM"],
  ["CC(=O)OC1C2(C)CCC(C2)C1(C)C (stereo not drawn) [Fenchyl acetate]", "> 90 µM"],
  ["CCCCOC(=O)C(C)Oc1ccc(Oc2ccc(C(F)(F)F)cn2)cc1 (stereo not drawn)", "> 90 µM"],
  ["CC1CCc2c(N3CCC(O)CC3)c(F)cc3c(=O)c(C(=O)O)cn1c23 (stereo not drawn)", "> 50 µM"],
  ["Cc1ccc2c(c1[N+](=O)[O-])C(=O)c1ccccc1C2=O", "38.7 µM"]
]}
